Species on record: Cavia porcellus
Experiment: Inhibition of histamine release from sensitized guinea pig chopped lung upon antigen challenge at 10 ug/mL.
Format: functional
Could you please report measured Inhibition for the items listed next?
Numbers only, in %.

Solved entries (count: 4):
CCc1ccc([S+](C)[O-])c(C(=O)c2ccc(Cl)cc2)c1 (stereo not drawn) : 1
CCc1ccc(SC)c(C(=O)c2ccc(C)cc2)c1 : 0
CCc1ccc(C(O)c2ccc(F)cc2)c(O)c1 (stereo not drawn) : 5
CCc1ccc(OC(=O)c2ccccc2)c(C(=O)c2ccc(Cl)cc2)c1 : 32

Look at each molecule and report its Inhibition.
1. CCc1ccc(O)c(C(=O)c2cccs2)c1
2. CCc1ccc(O)c(C(=O)c2ccc(C)cc2)c1
3. CCc1cccc(C(=O)c2ccccc2)c1O
4. CCc1ccc(O)c(C(O)c2ccc([N+](=O)[O-])cc2)c1 (stereo not drawn)
5. CN1CCC(=C2c3ccccc3CC(=O)c3sccc32)CC1
6. CCc1ccc(O)c([S+]([O-])c2ccccc2)c1 (stereo not drawn)
7. Cc1cccc(/C(=N/O)c2ccc(Cl)cc2)c1O

1: 0; 2: 53; 3: 92; 4: 0; 5: 37; 6: 36; 7: 52

Look at each molecule and report its Inhibition.
1. CCc1ccc(O)c([S+]([O-])c2ccc(Cl)cc2)c1 (stereo not drawn)
2. Cc1ccc(O)c(C(=O)c2ccccc2)c1

[26, 78]

Look at each molecule and report its Inhibition.
1. CCc1ccc(O)c(Cc2ccccc2)c1
2. CCc1ccc(O)c(C(=O)c2ccco2)c1
3. CCc1ccc(S(C)(=O)=O)c(C(=O)c2ccccc2)c1
4. Cc1ccc(O)c(C(=O)c2ccc(Cl)cc2)c1
5. CCc1cc(CC)c(O)c(C(=O)c2ccc(Cl)cc2)c1

0
0
13
0
9

====

Species: Homo sapiens
Assay: Inhibition of Slow reacting substance of anaphylaxis (SRS-A) mediator release form passively sensitized human lung upon antigen challenge at 1 ug/mL dose
Format: functional
Rule for this label: TRUE means Inhibition is less than 70%; FALSE means Inhibition is at least 70%.

Before answering, review these 7 worked examples.
CN1CCC(=C2c3ccccc3CC(=O)c3sccc32)CC1 : TRUE
CCc1ccc([S+](C)[O-])c(C(=O)c2ccc(C)cc2)c1 (centres undefined) : FALSE
CCc1ccc(O)c(C(=O)c2cccs2)c1 : TRUE
CCc1cccc(C(=O)c2ccc(Cl)cc2Cl)c1O : FALSE
Cc1cccc(C(=O)c2ccc(Cl)cc2)c1O : FALSE
Cc1cccc(/C(=N/O)c2ccccc2)c1O : TRUE
CCc1ccc(O)c(C(=O)c2ccc(Cl)cc2)c1 : FALSE

Below: the item to evaluate.
Check if Inhibition falls below 70% for `CCc1ccc(O)c(/C(=N/O)c2ccc(Cl)cc2)c1` .
FALSE

====

Could you please report measured Inhibition for the items listed next?
Species on record: Cavia porcellus
Test: Inhibition of histamine release from sensitized guinea pig chopped lung upon antigen challenge at 10 ug/mL.
Assay type: functional
One number for each entry, in %.

C=C(c1ccc(F)cc1)c1ccc(CC)cc1O : 0

Look at each compound and report its Inhibition.
1. CCc1ccc(O)c(C(O)c2ccccc2)c1 (configuration not stated)
2. CCc1ccc(SC)c(C(=O)c2ccccc2)c1
3. CCc1ccc(OC)c(C(OC)c2ccc(Cl)cc2)c1 (configuration not stated)

1. 7
2. 19
3. 22

Look at each compound and report its Inhibition.
1. Cc1ccc(O)c(/C(=N\O)c2ccc(Cl)cc2)c1
2. CCc1ccc(OC(C)=O)c(C(=O)c2ccc(C)cc2)c1
3. CCc1cccc(C(=O)c2ccc(Cl)cc2Cl)c1O

1: 25; 2: 9; 3: 8

FYI, the data here is from ChEMBL document CHEMBL1123797.
